B1: FBF1 (parent)
chain: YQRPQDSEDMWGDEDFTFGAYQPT

# Variants of: B1
# Assay Method Text: protein stability index of a GFP-peptide fusion (GPS, HEK-293T) (PSI 1-6); higher = more stable;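 further: lentivirally expressed fusions sorted by FACS into six bins by GFP to DsRed ratio, PSI derived from sequencing read proportions per bin multiplied by bin number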
# Test Context: c terminus: a fixed tail appended
Parameter: protein stability index
Form field (numeric): enter value without unit.

M10G
3.96

### Prompt Provide only the value of recorded protein stability index for `P23G`
### Response 3.19

### Prompt # return recorded protein stability index for input `E14R`
### Response 2.05

### Prompt Please report the measured protein stability index for `Y1D`
### Response 4.87

### Prompt Give reported protein stability index value for `E14I`
### Response 1.82

### Prompt Please give the documented protein stability index of `M10H`
### Response 3.47

### Prompt Assign protein stability index to the following record: `D6L`
### Response 2.17

Reference source: the supplement of paper PMC10567573
